test system: HCT-116 colon; experiment: NCI-60 one-dose screen, 48 h; conditions: 10 µM unless noted
This is part of a sample that, as a whole, favours compounds with a hit. Of some 83,000 tested, about 20% had one in any assay. Calls of active or inactive are those of the source. How the source made its calls: active means growth percent below 10; inactive means the rest.
The categories you may choose from are class 1 for active, class 0 for inactive

Look up the recorded call for Cc1ccc(CNc2ccc(Cl)cc2NCc2ccc(C)c(O)c2)cc1O in this test.
class 0

# fetch the recorded call for COc1ccc(-c2nc3c(c(-c4ccccc4)nn3-c3ccccc3)c(-c3ccc(N4CCOCC4)cc3)c2C#N)cc1 here
class 0

Lab log entry: O=C1/C(=C/c2cccs2)SC(=S)N1CCCN1CCOCC1 — outcome as called in the assay?
class 0

Per the assay record, what outcome was assigned to CCOC(=O)c1c(C)nc2c(c1N)CC(=O)N2Cc1cc(F)cc(Cl)c1 ?
class 0

Any idea what this test logged for CCc1n(Cc2ccc3ccccc3c2)cc[n+]1Cc1ccc2ccccc2c1 ?
class 1

Lab log entry: Cc1ccc(-c2cc(-c3ccc(Cl)cc3)nc(NC(=O)c3cccnc3)n2)cc1 — outcome as called in the assay?
class 0

# fetch the recorded call for CC1(C)CC2=C3C=C[C@@H]4[C@@]5(C)CCC(=O)C(C)(C)[C@@H]5CC[C@@]4(C)[C@]3(C)CC[C@@]2(C(=O)O)CC1=O here
class 0

Please share the test call associated with Cc1ccccc1NC(=O)c1sc2nc(C)c(C(=O)/C=C/c3ccccc3)cc2c1N .
class 0

What call does the record list for O=C(CSc1nc2sc3c(c2c(=O)n1-c1ccccc1)CCCCC3)N/N=C/c1ccc(F)cc1 ?
class 1

# fetch the recorded call for O=C(Nc1ncc(Cc2ccc(Cl)c(C(F)(F)F)c2)s1)c1ccc2nnsc2c1 here
class 0

So what was the verdict on COc1cc(-c2nc3cc(Cl)c(Cl)cc3[nH]2)ccc1OCC(=O)N=Nc1c(O)[nH]c2ccc([N+](=O)[O-])cc12 in this test?
class 0

Please let me know the test result on file for c1cc2[nH]ncc2cc1-c1nc2ccc3[nH]ncc3c2c2c1CCCC2 .
class 1

I would be grateful if you could indicate the recorded call for COc1cc(OC)cc(C2=C3CC[C@@H]4[C@H](CC[C@]5(C)C(=O)CC[C@@H]45)C3=CC3C(O)c4cccnc4N4C(=O)COC234)c1 (some centres not stated) .
class 0

# outcome recorded in this test, key = O=C(CCC(=O)N/N=C/c1ccccc1O)N/N=C/c1ccccc1O
class 0

Call for entry O=c1oc2ccc([N+](=O)[O-])cc2cc1Br :
class 0

Could you check what this test reported for COc1ccc2[nH]cc(C(c3cc(F)cc(F)c3)c3c[nH]c4ccc(OC)cc34)c2c1 ?
class 0

For this compound, state the assay outcome: CC(=O)OCc1nc(C#N)c(N(C)C)o1
class 0

Hello, I am checking results. What call was entered for COC(C(=O)[C@@H](O)[C@@H](C)O)[C@@H]1Cc2cc3cc(O[C@H]4C[C@@H](O[C@H]5C[C@@H](O)[C@H](O)C(C)O5)[C@H](O)C(C)O4)cc(O)c3c(O)c2C(=O)[C@H]1O[C@H]1C[C@@H](O[C@H]2C[C@@H](O[C@H]3C[C@@H](OC)[C@H](O)C(C)O3)[C@@H](O)C(C)O2)[C@H](O)C(C)O1 (some centres not stated) ?
class 0

State the result this test recorded for COc1ccc(-c2csc(NC(=O)CSc3nc(-c4ccccc4)cc(=O)[nH]3)n2)cc1 .
class 0

Dear all, I need the recorded test outcome for COc1ccc(Cc2cc(-c3ccccc3)nn(Cc3ccccc3)c2=O)cc1OC , thank you.
class 0

Tell me the recorded outcome of this test for Cc1ccc(Cl)cc1Nc1nc(C(F)(F)F)ccc1C(=O)N/N=C/c1cccnc1 .
class 0

Record lookup: outcome of this test for O=Nc1c(-c2c(O)[nH]c3ncccc23)[nH]c2ccccc12 ?
class 0

Record request — test call for O=S(=O)(Nc1cc(Br)c(O)c2ccccc12)c1ccc(F)cc1
class 0

What call does the record list for CCCCC(=O)c1ccco1 ?
class 0

Per the records of this test, what outcome belongs to O=C(Nc1cccnc1Nc1ccc(F)cc1)c1cn(Cc2cccc(Oc3ccccc3)c2)nn1 ?
class 0

Identify the outcome logged in this assay for the compound shown: Oc1c(Cl)cc(Cl)c2ccc(Cn3cc(-c4cc(F)cc(F)c4)nn3)nc12
class 1

# fetch the recorded call for CCOP(=O)(OCC)c1nc(-c2ccccc2)oc1NCc1cccnc1 here
class 0

Please state the recorded outcome for this compound: OCCOCCN(Cc1ccccn1)Cc1cc(I)cc(I)c1O
class 0

Could you check what this test reported for C=CCn1c(SCC(=O)NCc2cc(C)c(O)c(C)c2)nc2ccc(Cl)cc2c1=O ?
class 0

Which outcome was entered for the compound N#Cc1c(-c2cccs2)cc(-c2cccnc2)[nH]c1=O in this test?
class 0

Outcome? COc1cc(CNS(=O)(=O)c2ccc(C)cc2)ccc1OCc1cn(-c2ccc(Br)cc2)nn1
class 0

Hey, what did the test say about CCCCN[C@H]1CC[C@@]2(C)[C@@H](CC[C@@]3(C)[C@H]2[C@H](O)C[C@H]2/C(=C(\CCC=C(C)C)C(=O)OC)[C@@H](OC(C)=O)C[C@@]23C)[C@@H]1C ?
class 0
